- System: HOXA9
- MEASUREMENT PROTOCOL: Test 3: inhibition of mRNA transcription, HOXA9 in MV4;11 cells
- Type: cell-based
- RECORDED CONDITIONS: 20 to 24 hours, fitted with GAPDH
- Excerpt: Test 3: Test for the Inhibition of mRNA Transcription with Test Compounds MV4; 11 cells were obtained from American Type Culture Collection (ATCC). […] By using TaqMan™ Gene Expression Master Mix (Applied Biosystems, 4369016) and TaqMan™ probe (Applied Biosystems), the expression level of mRNA was quantified from the obtained cDNA with 7900HT (Applied Biosystems). […]
Hi there, I'd appreciate the recorded mRNA at 1 μM (% control) HOXA9 for every entry that follows.
I only need the number, in % control, no unit after it.

Observed mRNA at 1 μM (% control) HOXA9, HOXA9, N#Cc1cnc2sc(CC(F)(F)F)cc2c1N1CC2(CN(C(=O)[C@H]3N[C@H]4CC[C@@H]3[C@H](F)[C@@H]4CC3CC3)C2)C1 [Example 12] : 42.6

Observed mRNA at 1 μM (% control) HOXA9, HOXA9, N#Cc1cnc2sc(CC(F)(F)F)cc2c1N1CC2(CN(C(=O)[C@H]3N[C@H]4CC[C@@H]3C[C@@H]4CC3CC3)C2)C1 [Example 2] : 48.2

Observed mRNA at 1 μM (% control) HOXA9, HOXA9, C=C1C[C@@H]2CC[C@H]1[C@@H](C(=O)N1CC3(C1)CN(c1c(C#N)cnc4sc(CC(F)(F)F)cc14)C3)N2 [Example 6] : 45.9

Observed mRNA at 1 μM (% control) HOXA9, HOXA9, O=C([C@H]1N[C@H]2CC[C@@H]1C[C@@H]2CC1CC1)N1CC2(C1)CN(c1c(C(F)(F)F)cnc3sc(CC(F)(F)F)cc13)C2 [Example 1] : 55.0

Observed mRNA at 1 μM (% control) HOXA9, HOXA9, O=C([C@H]1N[C@H]2CC[C@@H]1C[C@H]2CC1CC1)N1CC2(C1)CN(c1c(C(F)(F)F)cnc3sc(CC(F)(F)F)cc13)C2 [Example 3] : 54.0

Observed mRNA at 1 μM (% control) HOXA9, HOXA9, C=C1C[C@@H]2CC[C@H]1[C@@H](C(=O)N1CC3(C1)CN(c1c(C(F)(F)F)cnc4sc(CC(F)(F)F)cc14)C3)N2 [Example 5] : 44.3

Observed mRNA at 1 μM (% control) HOXA9, HOXA9, N#Cc1cnc2sc(CC(F)(F)F)cc2c1N1CC2(CN(C(=O)[C@H]3N[C@H]4CC[C@@H]3C[C@H]4CC3CC3)C2)C1 [Example 4] : 52.5

Observed mRNA at 1 μM (% control) HOXA9, HOXA9, O=C([C@H]1N[C@H]2CC[C@@H]1[C@@H](F)[C@H]2CC1CC1)N1CC2(C1)CN(c1c(C(F)(F)F)cnc3sc(CC(F)(F)F)cc13)C2 [Example 13] : 45.4

Observed mRNA at 1 μM (% control) HOXA9, HOXA9, O=C([C@H]1N[C@H]2CC[C@@H]1[C@H](F)[C@@H]2CC1CC1)N1CC2(C1)CN(c1c(C(F)(F)F)cnc3sc(CC(F)(F)F)cc13)C2 [Example 11] : 45.0

Observed mRNA at 1 μM (% control) HOXA9, HOXA9, N#Cc1cnc2sc(CC(F)(F)F)cc2c1N1CC2(CN(C(=O)[C@H]3N[C@H]4CC[C@@H]3[C@@H](F)[C@H]4CC3CC3)C2)C1 [Example 14] : 51.4

###

- MEASUREMENT PROTOCOL: Test 4: pharmacokinetic study, oral, mouse
- RECORDED CONDITIONS: male, NOD.CB17-Prkdcscid/J, plasma, po, 100 mg/kg
PROPERTY LABEL: AUC(0-t) (ng·h/mL)
I only need the number, in ng·h/mL, no unit after it.

GET /value?item= O=C([C@H]1N[C@H]2CC[C@@H]1C[C@@H]2CC1CC1)N1CC2(C1)CN(c1c(C(F)(F)F)cnc3sc(CC(F)(F)F)cc13)C2 [Example 1] &field=AUC(0-t) returns 10300

GET /value?item= O=C([C@H]1N[C@H]2CC[C@@H]1[C@H](F)[C@@H]2CC1CC1)N1CC2(C1)CN(c1c(C(F)(F)F)cnc3sc(CC(F)(F)F)cc13)C2 [Example 11] &field=AUC(0-t) returns 6740

GET /value?item= C=C1C[C@@H]2CC[C@H]1[C@@H](C(=O)N1CCC3(CC1)CN(c1c(C#N)cnc4sc(CC(F)(F)F)cc14)C3)N2 [Example 28] &field=AUC(0-t) returns 11600

GET /value?item= N#Cc1cnc2sc(CC(F)(F)F)cc2c1N1CC2(CN(C(=O)[C@H]3N[C@H]4CC[C@@H]3[C@H](F)[C@@H]4CC3CC3)C2)C1 [Example 12] &field=AUC(0-t) returns 8970

GET /value?item= C=C1C[C@@H]2CC[C@H]1[C@@H](C(=O)N1CCC3(CC1)CN(c1c(C(F)(F)F)cnc4sc(CC(F)(F)F)cc14)C3)N2 [Example 27] &field=AUC(0-t) returns 17300

###

Reported pIC50, Menin-MLL binding (His-Menin1-615 and MLL1-172-FLAG) (Homo sapiens, UniProt O00255).
Just so you know, pIC50 here is -log10 of the concentration in molar units; reply with that number alone.

GET /value?item= O=C([C@H]1N[C@H]2CC[C@@H]1[C@H](F)[C@@H]2CC1CC1)N1CC2(C1)CN(c1c(C(F)(F)F)cnc3sc(CC(F)(F)F)cc13)C2 [Example 11] &field=pIC50 returns 7.73

GET /value?item= C=C1C[C@@H]2CC[C@H]1[C@@H](C(=O)N1CC3(C1)CN(c1c(C(F)(F)F)cnc4sc(CC(F)(F)F)cc14)C3)N2 [Example 5] &field=pIC50 returns 7.03

GET /value?item= O=C([C@H]1N[C@H]2CC[C@@H]1C[C@@H]2CC1CC1)N1CC2(C1)CN(c1c(C(F)(F)F)cnc3sc(CC(F)(F)F)cc13)C2 [Example 1] &field=pIC50 returns 7.44

GET /value?item= N#Cc1cnc2sc(CC(F)(F)F)cc2c1N1CC2(CN(C(=O)[C@H]3N[C@H]4CC[C@@H]3C[C@H]4CC3CC3)C2)C1 [Example 4] &field=pIC50 returns 7.32
